These entries and their values trace back to patent US20120219559A1.

molecular target: B7-H1 (Mus musculus, UniProt Q9EP73); test: CDS well image, 293T cells transfected with the mouse gene, stained with the mouse fusion protein
Sequence (Q9EP73 19-290 limits assumed): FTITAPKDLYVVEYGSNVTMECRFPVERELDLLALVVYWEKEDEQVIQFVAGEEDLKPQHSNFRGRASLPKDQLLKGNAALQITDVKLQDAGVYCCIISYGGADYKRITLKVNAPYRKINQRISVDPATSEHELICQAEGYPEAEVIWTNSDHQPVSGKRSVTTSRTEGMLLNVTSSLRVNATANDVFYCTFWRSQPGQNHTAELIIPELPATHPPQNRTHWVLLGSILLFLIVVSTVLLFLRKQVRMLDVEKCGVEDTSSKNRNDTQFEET
assay.metric: binding result

binder="mouse CD28Ig fusion protein (Fc fusion, UniProt P31041 20-149, looked up, Bought from R&D Systems; Ig (Fc) part not given) NKILVKQSPLLVVDSNEVSLSCRYSYNLLAKEFRASLYKGVNSDVEVCVGNGNFTYQPQFRSNAEFNCDGDFDNETVTFRLWNLHVNHTDIYFCKIEFMYPPPYLDNERSNGTIIHIKEKHLCHTQSSPK" assay_metric="binding result" result_value="no binding"
binder="B7-2Ig (Fc fusion, also called mouse B7-2Ig fusion protein; not shown: Ig (Fc) part and any linker of the R&D Systems fusion protein) VSVETQAYFNGTAYLPCPFTKAQNISLSELVVFWQDQQKLVLYEHYLGTEKLDSVNAKYLGRTSFDRNNWTLRLHNVQIKDMGSYDCFIQKKPPTGSIILQQTLTELSVIANFSEPEIKLAQNVTGNSGINLTCTSKQGHPKPKKMYFLITNSTNEYGDNMQISQDNVTELFSISNSLSLSFPDGVWHMTVVCVLETESMKISSKPLNFTQEFPSPQTYWK" assay_metric="binding result" result_value="no binding"
binder="B7-DCIg (Fc fusion, Mus musculus, UniProt Q9WUL5 20-219, looked up, Ig fusion protein purchased from R&D systems; also called mouse B7-DCIg fusion protein) fusion protein: LFTVTAPKEVYTVDVGSSVSLECDFDRRECTELEGIRASLQKVENDTSLQSERATLLEEQLPLGKALFHIPSVQVRDSGQYRCLVICGAAWDYKYLTVKVKASYMRIDTRILEVPGTGEVQLTCQARGYPLAEVSWQNVSVPANTSHIRTPEGLYQVTSVLRLKPQPSRNFSCMFWNAHMKELTSAIIDPLSRMEPKVPR" assay_metric="binding result" result_value="no binding"
binder="PD-1Ig (Fc fusion, Mus musculus, UniProt Q02242 25-167, looked up, Ig fusion protein purchased from R&D systems; also called mouse PD-1Ig fusion protein) fusion protein: LEVPNGPWRSLTFYPAWLTVSEGANATFTCSLSNWSEDLMLNWNRLSPSNQTEKQAAFCNGLSQPVQDARFQIIQLPNRHDFHMNILDTRRNDSGIYLCGAISLHPKAKIEESPGAELVVTERILETSTRYPSPSPKPEGRFQ" assay_metric="binding result" result_value=binds
binder="B7-H2Ig (Fc fusion, Mus musculus, UniProt Q9JHJ8 47-279, looked up, Ig fusion protein purchased from R&D systems; also called mouse B7-H2Ig fusion protein) fusion protein: ETEVGAMVGSNVVLSCIDPHRRHFNLSGLYVYWQIENPEVSVTYYLPYKSPGINVDSSYKNRGHLSLDSMKQGNFSLYLKNVTPQDTQEFTCRVFMNTATELVKILEEVVRLRVAANFSTPVISTSDSSNPGQERTYTCMSKNGYPEPNLYWINTTDNSLIDTALQNNTVYLNKLGLYDVISTLRLPWTSRGDVLCCVENVALHQNITSISQAESFTGNNTKNPQETHNNELK" assay_metric="binding result" result_value="no binding"
binder="ICOSIg (Fc fusion, Mus musculus, UniProt Q9WVS0 21-144, looked up, Ig fusion protein purchased from R&D systems; also called mouse ICOSIg fusion protein) fusion protein: EINGSADHRMFSFHNGGVQISCKYPETVQQLKMRLFREREVLCELTKTKGSGNAVSIKNPMLCLYHLSNNSVSFFLNNPDSSQGSYYFCSLSIFDPPPFQERNLSGGYLHIYESQLCCQLKLWL" assay_metric="binding result" result_value="no binding"
